Value source: ChEMBL document CHEMBL4196244

Exercise: for every item that follows, state its recorded inhibition (INH).
tested on: Hepatitis B virus; assay: Antiviral activity against HBV infected in human HepG2.2.15 cells assessed as inhibition of HBsAg secretion at 0.4 mM supplemented with fresh medium containing compound every 3 days for 9 days measured after 9 days by ELISA relative to control; format: functional
Please answer in the form of a number followed by its unit of measurement.

Ask: Look at this molecule and give its reported inhibition (INH). O=C(O)CCCC1=NCC2CCCN3CCCC1=C23 (racemic)
Result: 29.8%

Ask: Query (molecule): O=C1[C@@H](O)CC[C@@H]2[C@H]3CCCN4CCC[C@@H](CN12)[C@@H]34 ; field requested: inhibition (INH)
Result: 33.2%

Ask: Look at this molecule and give its reported inhibition (INH). O=C1CCC[C@@H]2[C@H]3CCCN4CCC[C@@H](CN12)[C@H]34
Result: 26.3%

Ask: What does the data say about its inhibition (INH)? Entry: O=C1CCCN2CCC[C@](O)(C2=O)[C@H]2CCCC(=O)N2C1
Result: 46%

Ask: Data request, read-out inhibition (INH), for O=C1CCC[C@@H]2[C@H]3CCCN4CCC[C@H](CN12)[C@@H]34 [SOPHORIDINE]
Result: 40.2%

Ask: Quick check: inhibition (INH) of O=C1CCCC2=C3CCCN4CCC[C@@H](CN12)[C@@H]34 ?
Result: 22.4%

Ask: Any idea what its inhibition (INH) is? The molecule is O=C1CCC[C@@H]2[C@H]3CCCN4CCC[C@@H](CN12)[C@@H]34 [MATRINE]
Result: 34.7%

Ask: Need inhibition (INH), item O=C1CCC[C@@H]2[C@H]3CCCN4CCC[C@H](CN12)[C@H]34
Result: 13.8%

Ask: Entry under review: O=C(O)CCCc1ncc2c3c1CCCN3CCC2 . Reported inhibition (INH)?
Result: 37.2%

Ask: Requested field: inhibition (INH). Item: O=C1CC[C@H]2[C@@H]3[C@H](CCCN13)CN1C(=O)CCC[C@H]21
Result: 32.5%

Ask: What value of measured inhibition (INH) is listed for O=C1CCCN2CCC[C@](O)(CN3C(=O)CCC[C@H]13)C2=O ?
Result: 14.1%

Ask: Item O=C(O)CCC[C@@H]1N=CC2=C3[C@H]1CCCN3CCC2 has what recorded inhibition (INH)?
Result: 30.8%

Ask: Quick one: inhibition (INH) for O=C1CCC[C@@H]2[C@H]3CCC[N+]4([O-])CCC[C@@H](CN12)[C@@H]34 (stereo partly drawn) [OXYMATRINE] ?
Result: 38.3%

* * *

test: Cytotoxicity against human HepG2.2.15 cells assessed as growth inhibition at 0.8 mM by MTT assay relative to control; format: cell-based, HepG2 2.2.15; details: read-out: GI
So I've got a bunch of compounds here, and I need their inhibition at 800 µM values.

Ask: Any idea what inhibition at 800 µM was measured for O=C1CCC[C@@H]2[C@H]3CCC[N+]4([O-])CCC[C@@H](CN12)[C@@H]34 (stereo partly drawn) [OXYMATRINE] ?
Result: ≥ 25%

Ask: Query (compound): O=C1CCC[C@@H]2[C@H]3CCCN4CCC[C@H](CN12)[C@@H]34 [SOPHORIDINE] ; field requested: inhibition at 800 µM
Result: ≥ 25%

Ask: Would you mind telling me what inhibition at 800 µM value was observed for O=C1CCC[C@@H]2[C@H]3CCCN4CCC[C@@H](CN12)[C@H]34 ?
Result: ≥ 25%

Ask: Can you share its inhibition at 800 µM? I mean this compound: O=C1CCC[C@@H]2[C@H]3CCCN4CCC[C@@H](CN12)[C@@H]34 [MATRINE]
Result: ≥ 25%

Ask: Using the record for O=C1CC[C@H]2[C@@H]3[C@H](CCCN13)CN1C(=O)CCC[C@H]21 , report its inhibition at 800 µM.
Result: ≥ 25%

Ask: What measured inhibition at 800 µM goes with O=C(O)CCC[C@@H]1N=CC2=C3[C@H]1CCCN3CCC2 ?
Result: ≥ 25%

Ask: So what does the record say about inhibition at 800 µM for O=C(O)CCCC1=NCC2CCCN3CCCC1=C23 (racemic) ?
Result: ≥ 25%

Ask: Bench note: what inhibition at 800 µM did O=C1CCCN2CCC[C@](O)(C2=O)[C@H]2CCCC(=O)N2C1 show?
Result: ≥ 25%

Ask: I would be grateful if you could share the reported inhibition at 800 µM for O=C1[C@@H](O)CC[C@@H]2[C@H]3CCCN4CCC[C@@H](CN12)[C@@H]34 .
Result: ≥ 25%

Ask: Record request: inhibition at 800 µM value, item O=C1CCCC2=C3CCCN4CCC[C@@H](CN12)[C@@H]34
Result: ≥ 25%

Ask: If you can, please state the reported inhibition at 800 µM value of O=C1CCCN2CCC[C@](O)(CN3C(=O)CCC[C@H]13)C2=O .
Result: ≥ 25%

Ask: Reported inhibition at 800 µM for O=C(O)CCCc1ncc2c3c1CCCN3CCC2 : what is it?
Result: ≥ 25%

Ask: Can you look up the measured inhibition at 800 µM of O=C1CCC[C@@H]2[C@H]3CCCN4CCC[C@H](CN12)[C@H]34 for me?
Result: ≥ 25%

* * *

experiment: Cytotoxicity against human HepG2.2.15 cells assessed as growth inhibition at 0.4 mM by MTT assay relative to control; type: cell-based, HepG2 2.2.15; conditions: read-out: GI
Kindly supply the reported inhibition at 400 µM values for the records listed here.

Ask: // returns reported inhibition at 400 µM for input O=C1CCC[C@@H]2[C@H]3CCCN4CCC[C@@](O)(CN12)[C@@H]34
Result: ≥ 25%

Ask: Value lookup for inhibition at 400 µM; key = O=C(CCCc1ncc2c3c1CCCN3CCC2)N1CCCCC1
Result: ≥ 25%

Ask: Recorded inhibition at 400 µM of O=C1CC[C@H]2C3=C(CCCN13)CN1C(=O)CCC[C@H]21 , please.
Result: ≥ 25%

* * *

assay: Cytotoxicity against human HepG2.2.15 cells assessed as growth inhibition at 1 mM by MTT assay relative to control; assay type: cell-based, HepG2 2.2.15; settings: read-out: GI
Measurement Label: inhibition at 1000 µM

Ask: Tell me the measured inhibition at 1000 µM of O=c1cccc2n1C[C@@H]1CCCN3CCC[C@H]2[C@H]13 , please.
Result: ≥ 25%

Ask: Value lookup for inhibition at 1000 µM; key = O=C1CCCC2=C3CCC[N+]4([O-])CCC[C@@H](CN12)[C@@H]34 (some centres not stated)
Result: ≥ 25%
